Source of measurements: patent US6110400A

Assay: Color development of photochromic cured product (color density, maximum absorption wavelength), xenon lamp 120 seconds
Format: physicochemical
Details: maximum absorption wavelength; monomers 3PG:45,4G:45,GMA:9,MSD:1
Below, each of the molecules is paired with its reported max value.
# output: numeric value plus its unit

{"molecule": "CC1=C2C(=O)N(c3cccc(S(C)(=O)=O)c3)C(=O)C2C2(c3occc31)C1CCCC2CCC1 (centres unmarked)", "max": "530 nm"}

As a next step, examine the molecule that follows.
For CC1=C2C(=O)N(c3ccccc3)C(=O)C2C2(c3sc(-c4ccccc4)cc31)C1CC3CC(C1)CC2C3 (centres unmarked) [Fulgimide compound A] the molecule record lists max as 555 nm
